The origin of these recorded values is paper PMC4741700.

molecular target: Myc-Max(S) heterodimers (Homo sapiens, UniProt P01106+P61244); assay: EMSA, DNA binding by Myc-Max(S) heterodimers; type: biochemical
Sequence (P01106 368-452 limits assumed): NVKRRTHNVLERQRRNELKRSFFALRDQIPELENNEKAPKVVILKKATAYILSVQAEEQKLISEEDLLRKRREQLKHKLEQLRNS
Sequence (P61244 1-151 isoform P61244-2): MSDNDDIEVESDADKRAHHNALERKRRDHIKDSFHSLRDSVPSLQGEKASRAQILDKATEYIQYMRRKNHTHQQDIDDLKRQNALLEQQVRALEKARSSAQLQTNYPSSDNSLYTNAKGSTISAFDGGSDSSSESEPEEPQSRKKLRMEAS
Assay endpoint: pIC50
pIC50 here is simply -log10 of the concentration when that concentration is written in mol/L.

Task: For the compound shown here, CC1=C(O)C(=O)C=C2C1=CC=C1[C@@]2(C)CC[C@@]2(C)[C@@H]3C[C@](C)(C(=O)O)CC[C@]3(C)CC[C@]12C [Celastrol, celastrol, reference compound] , give the reported pIC50.
Result: 4.17

* * *

Biological target: Myc-Max(S) heterodimers (Homo sapiens, UniProt P01106+P61244)
Test: EMSA, DNA binding by Myc-Max(S) heterodimers
Assay type: biochemical
Conditions: EMSA, recombinant Myc bHLH-ZIP and Max(S); read-out: IC50, DNA binding by Myc-Max(S) heterodimers
Excerpt: B. Formation of a typical Michael adduct with cysteine as an example (depicted in blue) is shown. […] C. […] Recombinant Myc bHLH-ZIP domain (residues 353-437), and full-length Max(S) and Max(L) were used for EMSAs along with a HEX-tagged, double-stranded oligonucleotide containing a Myc binding E-box element (CACGTG). Max(S) is the 151 residue isoform that homodimerizes efficiently but only binds DNA as a heterodimer in association with Myc. […]
pIC50: −log10 of the molar value.
Recorded pIC50 values for a group of compounds are listed next.

Task: For the compound shown here, C=C(C)C1CCC2(C(=O)O)CCC3(C)C(CCC4C5(C)Cc6nc7ccccc7nc6C(C)(C)C5CCC43C)C12 (stereo not drawn) , give the reported pIC50.
Result: 4.82 to 5.00

Task: Record: C=C(C)C1CCC2(C(=O)O)CCC3(C)C(CCC4C5(C)CCC(=O)C(C)(C)C5CCC43C)C12 (stereo not drawn)
Result: 4.82 to 5.00

Task: Record: CC1(C)CCC2(C(=O)O)CCC3(C)C(=CCC4C5(C)CCC(=O)C(C)(C)C5CCC43C)C2C1 (stereo not drawn)
Result: 4.82 to 5.00

* * *

system: Daudi Burkitt lymphoma cell line; assay: Proliferation inhibition of Daudi cells; assay type: cell-based; details: Homo sapiens
Recorded pIC50 values for a group of molecules are listed next.
pIC50 here is simply -log10 of the concentration when that concentration is written in mol/L.

Molecule	pIC50
CC1(C)CCC2(C(=O)O)CCC3(C)C(=CCC4C5(C)CCC(=O)C(C)(C)C5CCC43C)C2C1 (centres unmarked)	4.85

Task: For the molecule shown here, CC1=C(O)C(=O)C=C2C1=CC=C1[C@@]2(C)CC[C@@]2(C)[C@@H]3C[C@](C)(C(=O)O)CC[C@]3(C)CC[C@]12C [Celastrol, celastrol, reference compound] , give the reported pIC50.
Result: 7.05

Task: Record: C=C(C)C1CCC2(C(=O)O)CCC3(C)C(CCC4C5(C)Cc6nccnc6C(C)(C)C5CCC43C)C12 (centres unmarked)
Result: 5.50

Task: Record: C=C(C)C1CCC2(C(=O)O)CCC3(C)C(CCC4C5(C)Cc6nc7ccccc7nc6C(C)(C)C5CCC43C)C12 (centres unmarked)
Result: 4.85

Task: Record: C=C(C)C1CCC2(C(=O)O)CCC3(C)C(CCC4C5(C)CCC(=O)C(C)(C)C5CCC43C)C12 (centres unmarked)
Result: 5.20
